- assay system: T1, CRF2R
- T1 sequence (Q13324 whole entry, species assumed, looked up): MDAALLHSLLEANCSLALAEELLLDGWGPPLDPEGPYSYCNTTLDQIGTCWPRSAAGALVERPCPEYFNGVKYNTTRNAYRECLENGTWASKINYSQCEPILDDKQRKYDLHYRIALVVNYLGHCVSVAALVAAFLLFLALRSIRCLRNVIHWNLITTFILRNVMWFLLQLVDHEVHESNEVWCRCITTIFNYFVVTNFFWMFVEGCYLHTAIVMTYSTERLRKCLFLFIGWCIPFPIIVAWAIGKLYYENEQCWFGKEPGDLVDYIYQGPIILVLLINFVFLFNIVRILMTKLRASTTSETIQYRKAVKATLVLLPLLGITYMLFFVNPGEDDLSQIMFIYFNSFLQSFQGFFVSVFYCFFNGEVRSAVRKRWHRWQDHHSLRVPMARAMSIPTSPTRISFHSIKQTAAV
- test description: cell-based or functional assay
Ends that are not written are not given here.
Label key: met means CRF2R EC50 under 60 nM; not met means CRF2R EC50 of 60 nM or more.

Req: State whether 60 nM exceeds CRF2R EC50 recorded for ZGPPISIDLPIYLLRKMIEIEKQEKEKQQATTNARILARV (C-terminal amide) [SEQ ID NO 149] .
Resp: met

Req: State whether 60 nM exceeds CRF2R EC50 recorded for ZGPPISIDLPAYLLRKMIEIEKQEKEKQQAANNRLLLDTI (C-terminal amide) [SEQ ID NO 32] .
Resp: met

Req: State whether 60 nM exceeds CRF2R EC50 recorded for SQEPPISLDLPLELLREVLEMTKADQLAQQAHSNRKLLDIA-NH2 [SEQ ID NO 89] .
Resp: not met

Req: State whether 60 nM exceeds CRF2R EC50 recorded for IVLSLDVPIGLLQILLEQTKANAAREQATTVARILARV-NH2 [SEQ ID NO 116] .
Resp: not met

Req: State whether 60 nM exceeds CRF2R EC50 recorded for IVLSLDVPIGLLQILLEQARAEAAREQATTNARILARV-NH2 [SEQ ID NO 122] .
Resp: met

Req: State whether 60 nM exceeds CRF2R EC50 recorded for ZGPPISIDLPTLLLRKMIEIEKQEKEKQQAANNRLLLDTI (C-terminal amide) [SEQ ID NO 51] .
Resp: met

Req: State whether 60 nM exceeds CRF2R EC50 recorded for ZGPPISIDLPIELLRKMIEIEKQEKEKQQAANNRLLLDTI (C-terminal amide) [SEQ ID NO 76] .
Resp: not met

Req: State whether 60 nM exceeds CRF2R EC50 recorded for IVLSLDVPIGLLQILLEQAKQRAAREQATTNARILARV-NH2 [SEQ ID NO 110] .
Resp: met

Req: State whether 60 nM exceeds CRF2R EC50 recorded for ZGPPISIDLPQVLLRKMIEIEKQEKEKQQAANNRLLLDTI (C-terminal amide) [SEQ ID NO 197] .
Resp: met

Req: State whether 60 nM exceeds CRF2R EC50 recorded for ZGPPISIDLPDYLLRKMIEIEKQEKEKQQAANNRLLLDTI (C-terminal amide) [SEQ ID NO 54] .
Resp: not met

Req: State whether 60 nM exceeds CRF2R EC50 recorded for IVLSLDVPIGLLQILLEQTKADAAREQATTNARILARV-NH2 [SEQ ID NO 108] .
Resp: not met

Numbers sourced from patent US20030148956A1.
